Listed below: % inhibition of inward current following P02 voltage protocol, 10 µg/ml values for each entry.
- Target Desc: human Nav1.7 (full length) (human) (UniProt Q15858)
- Test: cell-based or functional assay
Answer with the value and then the unit.

# Binder, Test Result
rows = [
    ("8A7 (antibody, human IgG1, V domains shown, also called mAb 8A7) VH: EVQVQESGPGLVTPSQTLSLTCTVSGGSIKNNYYYWNWIRQPPGKGLEWMGAIAYSGSTYYSPSLQSRTSISRDTSKNQFTLQLSSVTPEDTAVYYCARVPSVFGLPYGGMNYWGKGTLVTVSS VL: SYELTQSPSVTVALRQTAKITCGGSRIGSKSVQWYQQKPGQVPVLVIYADNRRPSRIPERFSGSNSGNTATLIISGAQAEDEADYYCQVWDSSAAVFGGGTHLTVLG", "4%"),
]

Q. Bench note: what % inhibition of inward current following P02 voltage protocol, 10 µg/ml did 8B6 (antibody, human IgG1, V domains shown) VH: EVQLQESGPGLVKPSQTLSLTCTVSGGSISTSGTGWSWIRQPPGKGLEWMGIIGYDGGTYYNPSLKSRTSISRDTSKNQFSLQLTSVTPEDTAVYYCARGLGPWGQGIQVTVSS VL: DIQMTQSPSSLSASLGDRVTITCQASQGISKYLAWYQQKPGQAPKLLIYSASRLETGVPSRFSGSGSGTTFTLVISGLEAEDAGSYYCQQYYRAPATFGQGTKVELK show?
A. 30.2%

Q. What % inhibition of inward current following P02 voltage protocol, 10 µg/ml value was documented for this binder, 9H4 (antibody, human IgG1, V domains shown) VH: EVQLVQPGAELRNPGASVKVSCKASGYIFTSAYIDWVRQAPGQGLEWMGRIDPEDGETRYAHQFRDRVTFTADTSTSTVYAELNSLRSEDTAVYYCAITIEGFWGQGTQVTVSS VL: ATMLTQSPGSLSVVPGESASISCKTSRSLVHSDGKTYLSWLLQKPGQSPQRLIYQVSNRGSGVPDRFTGSGSGTDFTLKISGVKAEDAGVYYCAQATYYPLSFGSGTRVEIK ?
A. 3.8%
